# assayed_system: Cellular tumor antigen p53 (Homo sapiens)
# protocol_description: kinase inhibitors altering GFP-p53 stability in HPV16-positive cells, imaging, known kinase inhibitor set, EGFP/DsRed ratio (AID 1053116);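 also: test concentration not given here; cells exposed to compounds for 24 h at 37 °C before reading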
# experimental_setup: stronger effect = higher value; measured here: GFP-p53 positive objects count
measured_property: EGFP object count
Give your answer as a number; write no unit.

line_notation: Cn1cc(C2=C(c3cn(CCO)c4ccccc34)C(=O)NC2=O)c2ccccc21
EGFP object count: 25

Prompt: Form entry - test system: Cellular tumor antigen p53 (Homo sapiens); read-out: EGFP object count; compound: "COc1cccc(C2=C(c3cn(C)c4cccc(OC)c34)C(=O)NC2=O)c1"
Completion: 9

Prompt: Form entry - test system: Cellular tumor antigen p53 (Homo sapiens); read-out: EGFP object count; compound: "CCn1c(-c2nonc2N)nc2c(C#CC(C)(C)O)nc(OCCNC)cc21"
Completion: 10.5
